- Assay name: Kinetic solubility of the compound at pH 7.4 by chemiluminescence nitrogen detection method
- Type: physicochemical
- Assay conditions: buffer, read-out: Kinetic_solubility
Label criterion met when solubility kinetic is at or above 40 µM; anything below gets criterion not met.

>>> class_name("Cc1cc2nc(C(C)(C)O)cc(-c3ccccc3Cl)c2c(C)c1-c1ccncc1")
"criterion not met"
>>> class_name("CCc1ccccc1CNc1ccnc2cc(C)c(-c3ccc(CN4CCOCC4)cc3)c(C)c12")
"criterion met"
>>> class_name("Cc1cc2nc(C(=O)NCCF)cc(-c3ccccc3Cl)c2c(C)c1-c1ccncc1")
"criterion not met"
>>> class_name("Cc1cc2nc(C(N)=O)cc(-c3ccccc3Cl)c2c(C)c1-c1ccncc1")
"criterion not met"
>>> class_name("Cc1cc2nccc(-c3cccnc3)c2c(C)c1-c1ccc(CN2CCOCC2)cc1")
"criterion met"
>>> class_name("Cc1cc2nccc(-c3cncnc3)c2c(C)c1-c1ccc(CN2CCOCC2)cc1")
"criterion met"
>>> class_name("Cc1cc2nc(C(=O)NCCN(C)C)cc(-c3ccccc3Cl)c2c(C)c1-c1ccncc1")
"criterion met"
